# Target Desc: T1, FKBP3 109-224 FKBP_C (domain begin residue: 109, domain end residue: 224), Q00688
# T1 chain: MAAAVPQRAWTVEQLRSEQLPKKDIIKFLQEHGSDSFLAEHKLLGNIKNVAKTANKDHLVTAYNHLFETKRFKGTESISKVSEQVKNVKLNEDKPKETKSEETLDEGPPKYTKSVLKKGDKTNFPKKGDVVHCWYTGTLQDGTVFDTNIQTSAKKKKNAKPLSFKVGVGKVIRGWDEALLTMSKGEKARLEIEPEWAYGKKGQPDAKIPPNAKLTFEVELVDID
# Assay Overview: phage ELISA signal ratio (GST-PRM binding over GST background); higher = stronger binding of peptide-phage to the PRM
Measurement Type: phage ELISA signal ratio
Give the figure only, with no unit attached.

WGAGVFLVADPQMEVV ... 5
EEWKPHPEEGMGVFLV ... 13
QQGIGVFQDWFNHGLI ... 9.64
HADLQGLGVFEWQEPV ... 12.6

Need phage ELISA signal ratio, item `VGQGVFLDWKPGRDVN`
17.5
